# Test system: Zika virus NS2B-NS3 protease (unlinked complex)
# assay details: Primary screen GU Rhodamine qHTS for Zika virus inhibitors: Unlinked NS2B-NS3 protease assay (AID 1347159); note: nearly all actives have a fitted effect of over 60% in size
# settings: Recombinant ZIKV NS2B-NS3 protease, Rhodamine110 substrate fluorescence; series mostly up to 107 µM
Records with an inconclusive call do not appear. Active and inactive are the calls of the source. Calls come from the whole dose curve; as a rule, active = well fitted inhibition curve with a large enough effect; inconclusive = small, poorly fitted or top-dose-only effect; inactive = no such curve, though single readings can be large or run the other way.
Write down one outcome, taken from T = active, F = inactive

# count of solved cases: 8
[[record]]
compound = "CCCOc1ccc(CCc2nc3cc(-c4c(C)noc4C)ccc3n2CCN2CCOCC2)cc1"
target_or_test_system = "Zika virus NS2B-NS3 protease (unlinked complex)"
class_assignment = "F"

[[record]]
compound = "CCC(C)CNCC(=O)N1CCc2sccc2C1COc1cccc(C)c1 (stereo not given)"
target_or_test_system = "Zika virus NS2B-NS3 protease (unlinked complex)"
class_assignment = "F"

[[record]]
compound = "C=C1/C(=C/C=C2\\CCC[C@]3(C)[C@@H]([C@H](C)/C=C/[C@@H](C)C(C)C)CC[C@@H]23)C[C@@H](O)C[C@@H]1O"
target_or_test_system = "Zika virus NS2B-NS3 protease (unlinked complex)"
class_assignment = "T"

[[record]]
compound = "CC(=O)Nc1cccc(Nc2ncnc(N3CCC(OCc4ccc(OC(F)(F)F)cc4)CC3)n2)c1C"
target_or_test_system = "Zika virus NS2B-NS3 protease (unlinked complex)"
class_assignment = "F"

[[record]]
compound = "N#Cc1cnc2c(Cl)cc(NCc3cn(CCN4CCCCCC4)nn3)cc2c1Nc1ccc(F)c(Cl)c1"
target_or_test_system = "Zika virus NS2B-NS3 protease (unlinked complex)"
class_assignment = "F"

[[record]]
compound = "O=C(Nc1ccc(CN2CCOCC2)cc1)c1ccc(-c2cccc(Cl)c2)o1"
target_or_test_system = "Zika virus NS2B-NS3 protease (unlinked complex)"
class_assignment = "F"

[[record]]
compound = "CC(C)(O)C(=O)N1CCN(c2ccc(C(F)(F)F)c(C3=C(c4c[nH]c5ccccc45)C(=O)NC3=O)c2)CC1"
target_or_test_system = "Zika virus NS2B-NS3 protease (unlinked complex)"
class_assignment = "F"

[[record]]
compound = "COc1cc(/C=C2\\CCCN([C@@H](C)c3ccc(F)cc3)C2=O)ccc1-n1cnc(C)c1"
target_or_test_system = "Zika virus NS2B-NS3 protease (unlinked complex)"
class_assignment = "F"


Fill in: this test's call for O=C(NC[C@H](O)CN1CCc2ccccc2C1)c1ccnc(NC2CCC2)c1 is ___ F

What about CC1OC2OC(=O)C3(C)CC4C5(CO5)C5=CC(=O)OC(C)(C)C5=CC(=O)C4(C)C(C1=O)C23 (stereo not given) ? T

What about COc1cc(CCc2cc(NC(=O)c3ccc(N4CC(C)NC(C)C4)cc3)n[nH]2)cc(OC)c1 (stereo not given) ? F

What about O=C(NO)c1cnc(N2CCN(S(=O)(=O)c3ccc4ccccc4c3)CC2)nc1 ? F

What about COC1=CC(=O)C[C@@H](C)[C@@]12Oc1c(Cl)c(OC)cc(OC)c1C2=O ? F

What about CCN(CC)C(=O)C(c1ccccc1)N1CCN(c2ccc(NC(=O)c3ccccc3-c3cccnc3)cc2F)CC1 (stereo not given) ? F

What about C[C@H]1[C@H](/C=C/c2ccc(-c3ccccc3C#N)cn2)[C@@H]2[C@@H](C)OC(=O)[C@@H]2C[C@@H]1C ? F

Data credit: PubChem BioAssay (NCATS)
